experiment: yeast display, Sf9 membrane polyspecificity reagent, FACS + sequencing; frameworks hold sequencing errors

Primary Sequence: QVQLVESGGGLVQAGGSLRLSCAASGRTFGTNAMGWYRPAPGKERELVAAISWRGTSTYYADSVKGRFTISRDNAKNTVYLQMNILKPEVTAVYYCAADFSYTSYATRYQGDYWGQGTQVTVSS
polyreactivity (PSR sort gate): low polyreactivity
--
Primary Sequence: QVQLVESGGGLVQAGGSLRLSCAASGSTVFGNAMGWYRQAPGKERELVAAITSGGSTNYADSVKGRFTISRDNAKNTVYLQMNSLKPEDTAVYYCAKPSRWGWTGFYAYDYWGQGTQVTVSS
polyreactivity (PSR sort gate): low polyreactivity
--
Primary Sequence: QVQLVESGGGLVQAGGSLRLSCAASGSIFGVYTMGWYRQAPGKERELVAAITSAGSTYAYSVKGRFTISRDNAKNTVYLQMNSLKPEDTAVYYCNAQSVLLSLRVELREPHEYWGQGTQVTVSS
polyreactivity (PSR sort gate): low polyreactivity

----------
assay: yeast display, Sf9 membrane polyspecificity reagent, FACS + sequencing; frameworks hold sequencing errors
Readout: polyreactivity (PSR sort gate)

Please review the following examples before continuing.
Primary Sequence: QVQLVESGRGLVQAGGSLRLSCAASGNTFGENAMGWYRKAPGKERELVAAISNGGTTNYADSVKGRFTISRDNAKNSVYLQMNSLKPEDTAVYYCNAKFGISQPGHSGLLKMDYWGQGTQVTVSS
polyreactivity (PSR sort gate): low polyreactivity

Primary Sequence: QVQLVESGGRLVQAGGSLRLSCAASGFIFRYNAMGWYRQAPGKERELVARITSSGGTTYYADSVKGRFTISRDSSKNTVYLQMNSLKPEDTAVYYCNARKVRYPYGWYDYWGQGTQVTVSS
polyreactivity (PSR sort gate): high polyreactivity

Primary Sequence: EVQVVESGGGLVQAGGSLRLSCAASGRIFLRNAMGWYRQAPGKEWEFVATITSGGSTFYADSVKGRFTISRDNAKNTFYLQMNRLKPEDTAVYYCAAPSYYTPFHTPNYCWGQVTQVTVSS
polyreactivity (PSR sort gate): low polyreactivity

Primary Sequence: QVQLVESGGGLVQAGGSLRLSCAASGRIFTGYTMGWYRQAPGKERELVAGITRGGSTYYADSVKGRFTISRDNAKNTVYLQMNSLKPEDTAVYYCAADYPRFWYHSWYVPAYYYWGQGTQVTVSS
polyreactivity (PSR sort gate): high polyreactivity

From here, focus on the item given below.
Query string: Endpoint output: polyreactivity (PSR sort gate) of QVQLEESGGGLFQAGGSLRLSCAASGSTIFSNAMGWYRQAPGKAREVVAAITSDGGTYYADSVKGRFTISRDNAKKTVYLQMNSLKPEDTAVYYCNVGSFTGHSYGFGYWGQGTQVTVSS . Value?
Result string: low polyreactivity

----------
assay: yeast display, Sf9 membrane polyspecificity reagent, FACS + sequencing; frameworks hold sequencing errors
Readout: polyreactivity (PSR sort gate)

As a guide, the following entries are already answered.
Primary Sequence: QVQLVESCGGLVQAGGILRLSCAASGSTFRYYVMGWYRQAPGKERELVAAITSGGSKYYADSVKGRFTISRDNEQNTVYLQMNSLKPDDTAVYYCNKVYSRTFDYWGQGTQVTVSS
Experimental Value: high polyreactivity
//
Primary Sequence: QVQLVESGGGLVQAGGSLRLSCAASGSIFNGNAMGWYRQAPGKERELVAAITRRGGRTYYADSVKGRFTISRDNAKNTVYLQMNSLKPDDTAVYYCNAYSKAVQGGYDYWGQGTQVTVSS
Experimental Value: high polyreactivity
//
Primary Sequence: QVQLVESGGGLVQAGGSLRLSCAASGISSWYYAMGWYRQAPGKERELVAAITSDGRTNYADSVKGRFTISRDNAKNTVYLQMKSLKPEDTAVYYCAAARRVGVSHYRYGYWGHGTQVTVSS
Experimental Value: high polyreactivity
//
Primary Sequence: QVQLVESGGGLVQAGGSLRLSCASSGSTFPSNAMGWYRQAPGKERELVAAISRSGGSTYYADSVKGRFTISRDTAKNTVYLQMNSLKPEDTAVYYCAVQVRPNSGGTRIHRCGYDYWGQGTQVTVSS
Experimental Value: low polyreactivity
//
Primary Sequence: QVQLVESGGGLVQAGGSLRLICDASGRTFVRYAMGWYRQAPGKERELVAAITRSASTYYADSVKGRFTISRDNAKNTVYLQMNSLKPEDTAVYYCNAGRKYWFGRAGGYDYWGQGTQVTVSS
Experimental Value: high polyreactivity

Query string: Data request, read-out polyreactivity (PSR sort gate), for QVQLVESGGGLVQAGGSLRLSCAASGRIFAYYAMGWYRQAPGKERELVAGINSGGGSTYYADSVKGRFTISRDNAKNTVYLQMNSLKPEDNAVSYCATYYYRRSNRSSTSYDYWGQGTQVTVSS
Result string: high polyreactivity

Query string: What measured polyreactivity (PSR sort gate) goes with QVQHVDSGGGLVQAGGSLRLSCAASGFIFSYYAMGWYRQAPVKERELVAGISYNGDRTYYADSVKGRFTISRDNAKNTFYLQMKSLKPEDTAVYYCNVVWVLGGWYDLEYDYWGQGTQVTVSS ?
Result string: high polyreactivity

Query string: Return reported polyreactivity (PSR sort gate); argument: QVQLVESGGGLVQAGGSLRLSCAASGRTFKVYAMGWYRQAPGKERELVAAISDRGGSTYYADSVKGRFTISRDNAKNSVYLQMNSLKPEDTAVYYCSAEYARSTWRAYPELDYWGQGTQVTVSS
Result string: low polyreactivity

Query string: Which polyreactivity (PSR sort gate) value belongs to QVQLVESGGGLVQAGGSLRLSCAASGSIFPYYAMGWYRQAPGKERELVAAITYIGGDTYYADSVKGRFTISRDNAKNTVYLQMNSLKPEDTAVYYCAAELSWRQYDYEYWGQGTQVTVSS ?
Result string: low polyreactivity

Query string: So what does the record say about polyreactivity (PSR sort gate) for QVQLEESGGGLDQAGVSLRLSCAASGRTFPSNTMGWYRQAPGKERELVAAISWRGGSTYYADSVKGRFTITRDNAKKTVYLQMNSLKPEDTAVYYCNTLTKAYRSKSYYEWGHGTQVTVSS ?
Result string: high polyreactivity

Query string: Entry under review: QVQLVESGGGVVQAGGSLRLSCAASGRIFRGYVMGWYRQAPRKERELVAAITWSGANTYYADSVKGRFTISRDNAMNTVYLQMNSLKPEDSAVYYCAATVSYWSTKEDDYWGLGTQVTVSS . Reported polyreactivity (PSR sort gate)?
Result string: low polyreactivity
